# Tested on: bovine microtubule-associated protein (MAP)-rich tubulin
# Format: biochemical
# experimentalParameters: 0.3 uM
Where a SMILES comes first, the peptide text is derived from it. [ ]: non-standard residue; d: D form. The star is where a group is joined. NMePhe(β,β-Me2) = CN[C@H](C(=O)O)C(C)(C)c1ccccc1; Tle = CC(C)(C)[C@H](N)C(=O)O; NMeV = CN[C@H](C(=O)O)C(C)C; NHBn = c1ccc(CN*)cc1
Label rule, in plain words: Tubulin Polym. % inhibition at 0.3 uM of 70% and up is rule met, under 70% is rule not met.

>  <molecule>
CN[C@H](C(=O)N[C@H](C(=O)N(C)[C@H](/C=C(\C)C(=O)N1CCOCC1)C(C)C)C(C)(C)C)C(C)(C)c1cccc(C)c1

>  <subjectOfTest>
bovine microtubule-associated protein (MAP)-rich tubulin

>  <answerLabel>
rule met

$$$$
>  <molecule>
CN[C@H](C(=O)N[C@H](C(=O)N(C)[C@H](/C=C(\C)C(=O)N1CCC[C@H]1C(=O)OC)C(C)C)C(C)(C)C)C(C)(C)c1cccc(Cl)c1

>  <subjectOfTest>
bovine microtubule-associated protein (MAP)-rich tubulin

>  <answerLabel>
rule met

$$$$
>  <molecule>
CO[C@@H](C(=O)N[C@H](C(=O)N(C)[C@H](/C=C(\C)C(=O)O)C(C)C)C(C)(C)C)C(C)(C)c1ccccc1

>  <subjectOfTest>
bovine microtubule-associated protein (MAP)-rich tubulin

>  <answerLabel>
rule not met

$$$$
>  <molecule>
CN[C@H](C(=O)N[C@H](C(=O)N(C)[C@H](/C=C(\C)C(=O)N1CCC[C@H]1C(=O)O)C(C)C)C(C)(C)C)C(C)(C)c1cc(C)cc(C)c1

>  <subjectOfTest>
bovine microtubule-associated protein (MAP)-rich tubulin

>  <answerLabel>
rule met

$$$$
>  <molecule>
CN[C@H](C(=O)N[C@H](C(=O)N(C)[C@H](/C=C(\C)C(=O)N1CCC[C@H]1C(=O)O)C(C)C)C(C)(C)C)C(C)(C)C1CCCCC1

>  <subjectOfTest>
bovine microtubule-associated protein (MAP)-rich tubulin

>  <answerLabel>
rule met

$$$$
>  <molecule>
CN[C@H](C(=O)N[C@H](C(=O)N(C)[C@H](/C=C(\C)C(O)c1nccs1)C(C)C)C(C)(C)C)C(C)(C)c1ccccc1 (some centres unmarked)

>  <subjectOfTest>
bovine microtubule-associated protein (MAP)-rich tubulin

>  <answerLabel>
rule met

$$$$
>  <molecule>
CSC(C(=O)N[C@H](C(=O)N(C)[C@H](/C=C(\C)C(=O)O)C(C)C)C(C)(C)C)C(C)(C)c1ccccc1 (some centres unmarked)

>  <subjectOfTest>
bovine microtubule-associated protein (MAP)-rich tubulin

>  <answerLabel>
rule met

$$$$
>  <molecule>
C/C(=C\[C@H](C(C)C)N(C)C(=O)[C@@H](NC(=O)C(Cc1ccccc1)C(C)(C)c1ccccc1)C(C)(C)C)C(=O)O (some centres unmarked)

>  <subjectOfTest>
bovine microtubule-associated protein (MAP)-rich tubulin

>  <answerLabel>
rule not met

$$$$
>  <molecule>
CN[C@H](C(=O)N[C@H](C(=O)N(C)[C@H](C(=O)N1CCC[C@H]1C(=O)N1CCC[C@H]1C(=O)NCc1ccccc1)C(C)C)C(C)(C)C)C(C)(C)c1ccccc1 [Example 34] (H-[NMePhe(β,β-Me2)][Tle][NMeV]PP-NHBn)

>  <subjectOfTest>
bovine microtubule-associated protein (MAP)-rich tubulin

>  <answerLabel>
rule not met

$$$$
>  <molecule>
CN[C@H](C(=O)N[C@H](C(=O)N(C)[C@H](/C=C(\C)C(=O)N1CCC[C@H]1C(=O)O)C(C)C)C(C)(C)C)C(C)(C)c1ccc(C)c(C)c1

>  <subjectOfTest>
bovine microtubule-associated protein (MAP)-rich tubulin

>  <answerLabel>
rule met

$$$$
>  <molecule>
C/C(=C\[C@H](C(C)C)N(C)C(=O)[C@@H](NC(=O)[C@@H](O)C(C)(C)c1ccccc1)C(C)(C)C)C(=O)O

>  <subjectOfTest>
bovine microtubule-associated protein (MAP)-rich tubulin

>  <answerLabel>
rule not met

$$$$
>  <molecule>
CCOP(=O)(OCC)/C(C)=C/[C@H](C(C)C)N(C)C(=O)[C@@H](NC(=O)[C@@H](NC)C(C)(C)c1ccccc1)C(C)(C)C

>  <subjectOfTest>
bovine microtubule-associated protein (MAP)-rich tubulin

>  <answerLabel>
rule not met

$$$$
>  <molecule>
CN[C@H](C(=O)N[C@H](C(=O)N(C)[C@H](/C=C(\C)C(C)O)C(C)C)C(C)(C)C)C(C)(C)c1ccccc1 (some centres unmarked)

>  <subjectOfTest>
bovine microtubule-associated protein (MAP)-rich tubulin

>  <answerLabel>
rule met

$$$$
>  <molecule>
CN[C@H](C(=O)N[C@H](C(=O)N(C)[C@H](/C=C(\C)C(=O)N1CCN(Cc2ccccc2)CC1)C(C)C)C(C)(C)C)C(C)(C)c1ccc(C)c(C)c1

>  <subjectOfTest>
bovine microtubule-associated protein (MAP)-rich tubulin

>  <answerLabel>
rule not met

$$$$
>  <molecule>
CN[C@H](C(=O)N[C@H](C(=O)N(C)[C@H](/C=C/P(=O)(O)OC)C(C)C)C(C)(C)C)C(C)(C)c1ccccc1

>  <subjectOfTest>
bovine microtubule-associated protein (MAP)-rich tubulin

>  <answerLabel>
rule not met

$$$$
>  <molecule>
CN[C@H](C(=O)N[C@H](C(=O)N(C)[C@H](/C=C(\C)C(=O)N1CCN(CCCN(C)C)CC1)C(C)C)C(C)(C)C)C(C)(C)c1ccccc1

>  <subjectOfTest>
bovine microtubule-associated protein (MAP)-rich tubulin

>  <answerLabel>
rule met

$$$$
>  <molecule>
CN[C@H](C(=O)N[C@H](C(=O)N(C)[C@H](/C=C(\C)C(=O)N1CCN(C)CC1)C(C)C)C(C)(C)C)C(C)(C)c1cccc(C)c1.O=C(O)C(F)(F)F

>  <subjectOfTest>
bovine microtubule-associated protein (MAP)-rich tubulin

>  <answerLabel>
rule not met

$$$$
>  <molecule>
CN[C@H](C(=O)N[C@H](C(=O)N(C)[C@H](/C=C(\C)C(=O)NO)C(C)C)C(C)(C)C)C(C)(C)c1ccccc1

>  <subjectOfTest>
bovine microtubule-associated protein (MAP)-rich tubulin

>  <answerLabel>
rule met

$$$$
>  <molecule>
CN[C@H](C(=O)N[C@H](C(=O)N(C)[C@H](/C=C(\C)C(=O)N1CCC[C@H]1C(=O)N1CCC[C@H]1C(=O)NCc1ccccc1)C(C)C)C(C)(C)C)C(C)(C)c1cc(C)cc(C)c1

>  <subjectOfTest>
bovine microtubule-associated protein (MAP)-rich tubulin

>  <answerLabel>
rule not met

$$$$
